Hello, the source for this data is patent US20120316071A1, in case you need it.

- MEASUREMENT_TARGET: T1, Recombinant Human DLL4 (human, UniProt Q9NR61 27-524)
- T1 construct: Bought recombinant human DLL4 (R&D Systems 1506-D4/CF); also called delta-like protein 4; rHuman DLL4
- ASSAY_METHOD_TEXT: ELISA on plate-coated DLL4, Fab at 6.67 nM (3-fold serial dilution)
Recorded ELISA signal, one value per entry.
Please give the numeric answer without any surrounding text.

Fab VH1-46_IGHD6-6*01_IGHJ1*01 S102A/S103P/S104F/H111F I51A/N52L/S54T/G56H & L6_IGKJ1*01 S28N/S30D/S31H S52L/A55G (Fab, V domains shown, Fab expressed in E. coli: VH joined to CH1 from Plasmid A (His6 and Flag tags), VL joined to kappa CL from Plasmid C; also called H:APFF ALTH & L:NDH LG) VH: QVQLVQSGAEVKKPGASVKVSCKASGYTFTSYYMHWVRQAPGQGLEWMGIALPTGHSTSYAQKFQGRVTMTRDTSTSTVYMELSSLRSEDTAVYYCAREEYAPFSAEYFQFWGQGTLVTVSS VL: EIVLTQSPATLSLSPGERATLSCRASQNVDHYLAWYQQKPGQAPRLLIYDALNRGTGIPARFSGSGSGTDFTLTISSLEPEDFAVYYCQQRSNWPPWTFGQGTKVEIKR : 0.212
Fab VH1-46_IGHD6-6*01_IGHJ1*01 S102A/S103P/S104F/H111F N52L/S54T/G56H & L6_IGKJ1*01 S28N/S30D/S31H (Fab, V domains shown, Fab expressed in E. coli: VH joined to CH1 from Plasmid A (His6 and Flag tags), VL joined to kappa CL from Plasmid C; also called H:APFF LTH & L:NDH) VH: QVQLVQSGAEVKKPGASVKVSCKASGYTFTSYYMHWVRQAPGQGLEWMGIILPTGHSTSYAQKFQGRVTMTRDTSTSTVYMELSSLRSEDTAVYYCAREEYAPFSAEYFQFWGQGTLVTVSS VL: EIVLTQSPATLSLSPGERATLSCRASQNVDHYLAWYQQKPGQAPRLLIYDASNRATGIPARFSGSGSGTDFTLTISSLEPEDFAVYYCQQRSNWPPWTFGQGTKVEIKR : 0.739
Fab VH1-46_IGHD6-6*01_IGHJ1*01 S102A/S103P/S104F/H111F I51V/N52L/S54T/G56H & L6_IGKJ1*01 S28N/S30D/S31H (Fab, V domains shown, Fab expressed in E. coli: VH joined to CH1 from Plasmid A (His6 and Flag tags), VL joined to kappa CL from Plasmid C; also called H:APFF VLTH & L:NDH) VH: QVQLVQSGAEVKKPGASVKVSCKASGYTFTSYYMHWVRQAPGQGLEWMGIVLPTGHSTSYAQKFQGRVTMTRDTSTSTVYMELSSLRSEDTAVYYCAREEYAPFSAEYFQFWGQGTLVTVSS VL: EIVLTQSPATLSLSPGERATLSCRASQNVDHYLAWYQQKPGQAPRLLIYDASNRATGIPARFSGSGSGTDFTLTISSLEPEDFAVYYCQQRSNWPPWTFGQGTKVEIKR : 0.776

Next item in the queue.
Exercise: Query: ELISA signal; subject: Fab VH1-46_IGHD6-6*01_IGHJ1*01 S102A/S103P/S104F/H111F I51A/N52L/S54T/G56H & L6_IGKJ1*01 S28N/S30D/S31H S52L/A55S (Fab, V domains shown, Fab expressed in E. coli: VH joined to CH1 from Plasmid A (His6 and Flag tags), VL joined to kappa CL from Plasmid C; also called H:APFF ALTH & L:NDH LS) VH: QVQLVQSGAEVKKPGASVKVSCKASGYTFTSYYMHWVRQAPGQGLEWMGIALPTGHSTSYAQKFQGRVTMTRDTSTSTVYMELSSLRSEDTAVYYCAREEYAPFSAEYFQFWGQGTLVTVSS VL: EIVLTQSPATLSLSPGERATLSCRASQNVDHYLAWYQQKPGQAPRLLIYDALNRSTGIPARFSGSGSGTDFTLTISSLEPEDFAVYYCQQRSNWPPWTFGQGTKVEIKR
Key: 0.282
